system_name: stearoyl-CoA desaturase (SCD) (Mus musculus)
Construct: % Remaining SCD activity compared to DMSO control in mouse liver microsome assay; from tissue; host or cells: mouse liver microsomes
Sequence (P13516 1-355): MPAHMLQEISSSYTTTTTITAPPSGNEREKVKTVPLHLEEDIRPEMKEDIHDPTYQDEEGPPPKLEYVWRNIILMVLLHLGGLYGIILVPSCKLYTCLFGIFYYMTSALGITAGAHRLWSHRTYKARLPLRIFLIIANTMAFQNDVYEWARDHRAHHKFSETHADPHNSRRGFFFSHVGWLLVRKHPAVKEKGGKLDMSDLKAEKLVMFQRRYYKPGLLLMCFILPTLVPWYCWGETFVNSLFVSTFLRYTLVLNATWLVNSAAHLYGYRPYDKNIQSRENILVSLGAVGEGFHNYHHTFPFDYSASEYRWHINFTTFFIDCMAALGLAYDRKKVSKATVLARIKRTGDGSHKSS
method_notes: SCD mouse liver microsome assay (tritiated stearoyl-CoA desaturation)
Type: biochemical
condition_notes: 10 uM test compound; mouse liver microsomes 100 μg, 15 min RT preincubation, 15 min RT desaturation
Recorded % Remaining SCD activity compared to DMSO control, average, one value per entry.
measurement_kind: % Remaining SCD activity compared to DMSO control, average (%)

> print(dat)
                                 cpd.smiles                               system.name  measured.number
1  CCCCCNC(=O)c1ccc(N2CCN(C(=O)c3ccccc3C(F)(F)F)CC2)nc1  stearoyl-CoA desaturase (SCD) (Mus musculus)             1.72
2  CCCCCCNC(=O)c1ccc(N2CCN(C(=O)c3ccccc3C(F)(F)F)CC2)nc1  stearoyl-CoA desaturase (SCD) (Mus musculus)             1.22
3  O=C(NCCCc1ccccc1)c1ccc(N2CCN(C(=O)c3cc(Cl)ccc3Cl)CC2)nc1  stearoyl-CoA desaturase (SCD) (Mus musculus)             1.07
4  CCCCNC(=O)c1ccc(N2CCN(C(=O)c3ccccc3C(F)(F)F)CC2)nc1  stearoyl-CoA desaturase (SCD) (Mus musculus)             2.69
5  CCCCCNC(=O)c1ccc(N2CCN(C(=O)c3cc(Cl)ccc3Cl)CC2)nc1  stearoyl-CoA desaturase (SCD) (Mus musculus)             1.97
6  O=C(NCCc1ccccc1)c1ccc(N2CCN(C(=O)c3ccccc3Br)CC2)nc1  stearoyl-CoA desaturase (SCD) (Mus musculus)             1.29
7  COc1ccc(Br)c(C(=O)N2CCN(c3ccc(C(=O)NCCCc4ccccc4)cn3)CC2)c1  stearoyl-CoA desaturase (SCD) (Mus musculus)             1.01
8  CC(C)CCNC(=O)c1ccc(N2CCN(C(=O)c3ccccc3Br)CC2)nc1  stearoyl-CoA desaturase (SCD) (Mus musculus)             1.27

* * *

system_name: stearoyl-CoA desaturase (SCD) (Mus musculus, UniProt P13516)
Construct: % Remaining SCD activity compared to DMSO control in mouse liver microsome assay; from tissue; host or cells: mouse liver microsomes
method_notes: SCD mouse liver microsome assay (tritiated stearoyl-CoA desaturation)
Type: biochemical
condition_notes: Table 5; % remaining SCD activity at 1 μM, mouse microsome assay
Experimental: The identification of compounds of the invention was readily accomplished using the SCD enzyme and microsomal assay procedure described in Brownlie et al, supra. Briefly, mouse or human liver microsomes (induced for SCD1 expression and containing cytochrome b5 and cytochrome b5 reductase) and NADH are suspended in buffer with a test compound, and reaction is initiated by addition of 0.025 mM tritiated stearoyl-CoA. This ligand is tritiated at the C9 and C10 position only. […]
Recorded % Activity 1 μM, one value per entry.
measurement_kind: % Activity 1 μM

> print(dat)
                                 cpd.smiles  result
1  CC(C)CCNC(=O)c1ccc(N2CCN(C(=O)c3ccccc3Br)CC2)nc1    5.5%
2  CC(C)CCNC(=O)c1ccc(N2CCN(C(=O)c3cccc4ccccc34)CC2)nc1      7%
3  CCCCCNC(=O)c1ccc(N2CCN(C(=O)c3cc(Cl)ccc3Cl)CC2)nc1    5.4%
4  CCCCCCNC(=O)c1ccc(N2CCN(C(=O)c3ccccc3C(F)(F)F)CC2)nc1    6.5%
